# System: HCV replicon
# METHOD: HCV replicon luciferase assay
# Format: cell-based
# CONDITION: Hepatitis C virus, Huh-7, 72 h
pEC50: −log10 of the molar value.
MEASUREMENT_LABEL: pEC50

Q: Request: pEC50, test system HCV replicon, entry CNC(=O)c1c(-c2ccc(F)cc2)oc2cc([N+](=O)[O-])c(-c3cccc(C(=O)NC(CO)(CO)CO)c3)cc12 [Compound 3001]
Ans: 5.59

Q: Request: pEC50, test system HCV replicon, entry CCN(CC)c1cc2oc(-c3ccc(F)cc3)c(C(=O)NC)c2cc1-c1cccc(C(=O)NCC2(CO)COC2)c1 [Compound 1037]
Ans: > 7.00

Q: Request: pEC50, test system HCV replicon, entry CCN(CC)c1cc2oc(-c3ccc(F)cc3)c(C(=O)NC)c2cc1-c1cccc(C(=O)NCC2(c3ccccc3)CC2)c1 [Compound 1018]
Ans: 6.00 to 7.00

Q: Request: pEC50, test system HCV replicon, entry CCN(CC)c1cc2oc(-c3ccc(F)cc3)c(C(=O)NC)c2cc1-c1cccc(C(=O)NCC2(Cn3cccn3)CC2)c1 [Compound 1011]
Ans: 7.58

Q: Request: pEC50, test system HCV replicon, entry CC[C@H](COCc1ccccc1)NC(=O)c1cccc(-c2cc3c(C(=O)NC)c(-c4ccc(F)cc4)oc3cc2N(CC)CC)c1 [Compound 1024]
Ans: 6.00 to 7.00

Q: Request: pEC50, test system HCV replicon, entry CCN(CC)c1cc2oc(-c3ccc(F)cc3)c(C(=O)NC)c2cc1-c1cccc(C(=O)NCC2(COC)CC2)c1 [Compound 1020]
Ans: > 7.00

Q: Request: pEC50, test system HCV replicon, entry CCOC(=O)[C@@H]1CCCC[C@@H]1NC(=O)c1cccc(-c2cc3c(C(=O)NC)c(-c4ccc(F)cc4)oc3cc2N(CC)CC)c1 [Compound 1004]
Ans: > 7.00

Q: Request: pEC50, test system HCV replicon, entry CCN(CC)c1cc2oc(-c3ccc(F)cc3)c(C(=O)NC)c2cc1-c1cccc(C(=O)N[C@H]2CC=CC[C@H]2CO)c1 [Compound 1009]
Ans: > 7.00

Q: Request: pEC50, test system HCV replicon, entry CCN(CC)c1cc2oc(-c3ccc(F)cc3)c(C(=O)NC)c2cc1-c1cccc(C(=O)N[C@@H]2CCCC[C@@H]2C(=O)O)c1 [Compound 2001]
Ans: 6.00 to 7.00

Q: Request: pEC50, test system HCV replicon, entry CCN(CC)c1cc2oc(-c3ccc(F)cc3)c(C(=O)NC)c2cc1-c1cccc(C(=O)N[C@H]2CCC[C@H]2C(=O)N[C@H]2CCC[C@H]2C(=O)O)c1 [Compound 1042]
Ans: 6.00 to 7.00

Q: Request: pEC50, test system HCV replicon, entry CCOP(=O)(CCCNC(=O)c1cccc(-c2cc3c(C(=O)NC)c(-c4ccc(F)cc4)oc3cc2N(CC)CC)c1)OCC [Compound 1015]
Ans: > 7.00

Q: Request: pEC50, test system HCV replicon, entry CCOP(=O)(O)CCCNC(=O)c1cccc(-c2cc3c(C(=O)NC)c(-c4ccc(F)cc4)oc3cc2N(CC)CC)c1 [Compound 2003]
Ans: < 6.00

Q: Request: pEC50, test system HCV replicon, entry CCN(CC)c1cc2oc(-c3ccc(F)cc3)c(C(=O)NC)c2cc1-c1cccc(C(=O)NCC2(C)COC2)c1 [Compound 1036]
Ans: 7.58
